Give measured melting point for each item. Keep answers brief.

Entry FC(F)(F)c1ccc(-c2cc(Nc3ccc4ncsc4c3)nnc2Cl)cc1 has what melting point? 206.3 °C (dec.)

Entry COc1ccc(-c2nnc(Nc3ccc4cccnc4c3)cc2-c2ccc(C(F)(F)F)cc2)cc1 has what melting point? 215 to 217 °C

Entry Cc1ccc(Nc2cc(-c3ccc(C(F)(F)F)cc3)ncn2)cc1C has what melting point? 154 to 156 °C

Entry Nc1nc2c(Nc3cc(-c4ccc(C(F)(F)F)cc4)ncn3)cccc2s1 has what melting point? 225 to 227 °C

Entry Cc1c(Cl)cccc1Nc1cc(-c2ccc(C(F)(F)F)cc2)ncn1 has what melting point? 148 to 150 °C

Entry FC(F)(F)c1ccc(-c2cc(Nc3ccc4cc[nH]c4c3)ncn2)cc1 has what melting point? 231 to 232 °C

Entry OCc1cc2cccc(Nc3cc(-c4ccc(C(F)(F)F)cc4)ncn3)c2[nH]1 has what melting point? 221 to 223 °C

Entry FC(F)(F)c1ccc(-c2cc(Nc3ccc4ccccc4c3)ncn2)cc1 has what melting point? 212 to 213 °C

Entry OCCOc1ccc(Nc2cc(-c3ccc(C(F)(F)F)cc3)ncn2)cn1 has what melting point? 189.5 to 190.5 °C

Entry FC(F)(F)c1ccc(-c2cc(Nc3ccc4ccc(Cl)nc4c3)ncn2)cc1 has what melting point? 233 °C

Entry Cc1cc(O)nc2cc(Nc3cc(-c4ccc(C(F)(F)F)cc4)ncn3)ccc12.Cl has what melting point? 373 °C (dec.)

Entry FC(F)(F)c1ccc(-c2cc(Nc3cccnc3Cl)ncn2)cc1 has what melting point? 134 to 135 °C

Entry CC(C)(C)c1ccc(-c2cc(Nc3ccc4[nH]ccc4c3)nnc2-c2ccccc2)cc1 has what melting point? 138 to 140 °C

Entry CC(=O)Nc1ccc(Nc2cc(-c3ccc(C(F)(F)F)cc3)ncn2)cc1 has what melting point? 236 to 238 °C

Entry Fc1ccc(-c2nnc(Nc3ccc4ncsc4c3)cc2-c2ccc(C(F)(F)F)cc2)cc1 has what melting point? 269 °C

Entry FC(F)(F)c1ccc(-c2cc(Nc3ccc4scnc4c3)ncn2)cc1 has what melting point? 192.1 to 192.2 °C

Entry FC(F)(F)c1ccc(-c2cc(Nc3ccc(Cl)c(Cl)c3)ncn2)cc1 has what melting point? 178 to 180 °C

Entry FC(F)(F)c1ccc(-c2cc(Nc3cccc4ccccc34)ncn2)cc1 has what melting point? 232 to 233 °C

Entry Cc1nc2cc(Nc3cc(-c4ccc(C(F)(F)F)cc4)ncn3)ccc2s1 has what melting point? 219.5 to 220.5 °C

Entry Cc1ccccc1Nc1cc(-c2ccc(C(F)(F)F)cc2)ncn1 has what melting point? 117 to 119 °C

Entry CC(C)(C)c1ccc(-c2cc(Nc3ccc4nn[nH]c4c3)ncn2)cc1 has what melting point? 250 to 252 °C

Entry CC(=O)N1CC(C)(C)c2ccc(Nc3cc(-c4ccc(C(F)(F)F)cc4)ncn3)cc21 has what melting point? 227 to 230 °C

Entry CS(=O)(=O)c1cccc(Nc2cc(-c3ccc(C(F)(F)F)cc3)ncn2)c1 has what melting point? 204 to 205 °C

Entry CC(C)(C)c1ccc(-c2cc(Nc3cnc4ccccc4c3)ncn2)cc1 has what melting point? 227 to 229 °C

Entry CC(C)(C)c1ccc(-c2cc(Nc3ccc4c(c3)OCCO4)ncn2)cc1 has what melting point? 199 to 202 °C

Entry FC(F)(F)c1ccc(-c2cc(Nc3ccc4ncccc4c3)ncn2)cc1 has what melting point? 268 to 269 °C

Entry FC(F)(F)c1ccc(-c2cc(Nc3ccccc3)ncn2)cc1 has what melting point? 184 to 186 °C

Entry CC(C)(C)c1ccc(-c2cc(Nc3cccc4[nH]ccc34)ncn2)cc1 has what melting point? 241 to 242 °C

Entry Oc1ccc2ccc(Nc3cc(-c4ccc(C(F)(F)F)cc4)ncn3)cc2n1 has what melting point? 337 °C (dec.)

Entry CC(C)(C)c1ccc(-c2cc(Nc3ccc4c(c3)CCCC4=O)ncn2)cc1 has what melting point? 230 to 232 °C

Entry CC(C)(C)c1ccc(-c2cc(Nc3ccc4ncsc4c3)nnc2-c2ccccc2)cc1 has what melting point? 293 to 295 °C

Entry FC(F)(F)c1ccc(-c2cc(Nc3ccc4cccnc4c3)ncn2)cc1 has what melting point? 260 °C

Entry CC(C)(C)c1ccc(-c2cc(Nc3ccccc3)ncn2)cc1 has what melting point? 166 °C

Entry Nc1cc(C(F)(F)F)ccc1-c1cc(Nc2ccc3ncsc3c2)ncn1 has what melting point? 203.1 to 203.2 °C

Entry CSc1cccc(Nc2cc(-c3ccc(C(F)(F)F)cc3)ncn2)c1 has what melting point? 130 to 132 °C

Entry CC(C)(C)c1ccc(-c2cc(Nc3ccc4ncsc4c3)nc(N)n2)cc1.Cl has what melting point? 220 to 222 °C

Entry FC(F)(F)c1ccc(-c2cc(Nc3cccc4cccnc34)ncn2)cc1 has what melting point? 162 to 163 °C

Entry FC(F)(F)c1ccc(-c2cc(Nc3cnc4ccccc4c3)ncn2)cc1 has what melting point? 262 to 263 °C

Entry Nc1ccc2cccc(Nc3cc(-c4ccc(C(F)(F)F)cc4)ncn3)c2n1 has what melting point? 211 to 213 °C

Entry Cc1ccc(Cl)cc1Nc1cc(-c2ccc(C(F)(F)F)cc2)ncn1 has what melting point? 144 to 146 °C

Recorded values, source patent US7053088B2.
